Just for reference, patent US12072338B2 is where these values come from.

tested on: Adjuvant-Induced Arthritis (AIA) rats; assay: Adjuvant Induced Arthritis (AIA) rat model, Clinical Score; assay type: in vivo; conditions: 25 μg IP on days 7-18
measured parameter: maximal anti-inflammatory effect (%)
Write the value in % as a bare number.

Study these solved cases before continuing.
May I ask what maximal anti-inflammatory effect has been recorded for WVFGAAMCK [Ph-p8.8] ?
20

Same question for WVFGVHFCK [Ph-p8.77] please.
23

Continuing:
May I ask what maximal anti-inflammatory effect has been recorded for WVFGNMICK [P8 Rat] ?
40

Same question for WVFGNAMCK [P8] please.
17

---

Molecular target: I-309 (Homo sapiens)
Construct: purchased 300-37
Sequence (P22362 24-96): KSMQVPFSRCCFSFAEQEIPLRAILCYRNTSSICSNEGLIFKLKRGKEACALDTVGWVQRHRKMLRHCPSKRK
Assay: Micro-array analysis of chemokine binding peptides: I-309
Details: limit = start of the upper 75% of that peptide's response range
measured parameter: binding to I-309 with relatively high affinity (Relative Fluorescence Units)

Study these solved cases before continuing.
May I ask what binding to I-309 with relatively high affinity (Relative Fluorescence Units) has been recorded for LFGNDCE [CBP5] ?
> 2,500 RFU

Same question for WVFGVHFCK [Ph-p8.77] please.
> 15,000 RFU

Same question for DYDYGAPC [Ph-p30] please.
> 15,000 RFU

Could you now consider this next substance?
May I ask what binding to I-309 with relatively high affinity (Relative Fluorescence Units) has been recorded for WVFGNAMCK [P8] ?
> 25,000 RFU

---

Biological target: I-TAC (Homo sapiens, UniProt O14625)
Construct: purchased 300-46
Sequence (O14625 22-94): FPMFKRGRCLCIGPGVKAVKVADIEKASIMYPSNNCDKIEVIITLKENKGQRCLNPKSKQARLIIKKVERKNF
Experiment: Micro-array analysis of chemokine binding peptides: I-TAC
Settings: limit = start of the upper 75% of that peptide's response range
measured parameter: binding to I-TAC with relatively high affinity (Relative Fluorescence Units)

May I ask what binding to I-TAC with relatively high affinity (Relative Fluorescence Units) has been recorded for DYDYGAPC [Ph-p30] ?
> 15,000 RFU

Same question for DRYLNIVHAT [Ph-p18] please.
> 9,000 RFU

Same question for SYYDDVGL [Ph-p27] please.
> 15,000 RFU

Same question for WVFGVHFCK [Ph-p8.77] please.
> 15,000 RFU

Could you now consider this next sequence?
May I ask what binding to I-TAC with relatively high affinity (Relative Fluorescence Units) has been recorded for WVFGNAMCK [P8] ?
> 25,000 RFU

---

molecular target: MCP-4 (Homo sapiens, UniProt Q99616); construct: purchased 300-24; assay: Micro-array analysis of chemokine binding peptides: MCP-4; conditions: limit = start of the upper 75% of that peptide's response range
Sequence (Q99616 17-98): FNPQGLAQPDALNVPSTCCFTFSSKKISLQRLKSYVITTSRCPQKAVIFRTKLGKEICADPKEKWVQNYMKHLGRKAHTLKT
measured parameter: binding to MCP-4 with relatively high affinity (Relative Fluorescence Units)

Study these solved cases before continuing.
May I ask what binding to MCP-4 with relatively high affinity (Relative Fluorescence Units) has been recorded for HHTCSLHFP [Ph-p16] ?
> 15,000 RFU

Same question for WVFGNAACK [Ph-p8.7] please.
> 15,000 RFU

Same question for WVFGAAMCK [Ph-p8.8] please.
> 15,000 RFU

Same question for DYDYGAPC [Ph-p30] please.
> 15,000 RFU

Same question for WVFGAAACK [Ph-p8.6] please.
> 15,000 RFU

Same question for TKCOKE (TKCQKE; listed as Homo sapiens) [Ph-p20] please.
> 15,000 RFU

Same question for WVFGHGMCK [Ph-p25] please.
> 15,000 RFU

Same question for WVFGNAMCK [P8] please.
> 25,000 RFU

Continuing:
May I ask what binding to MCP-4 with relatively high affinity (Relative Fluorescence Units) has been recorded for LFGNDCE [CBP5] ?
> 2,500 RFU

Same question for WVFGVHFCK [Ph-p8.77] please.
> 15,000 RFU

---

Target: Mig (Homo sapiens)
Construct: purchased 300-26
Sequence (Q07325 23-125): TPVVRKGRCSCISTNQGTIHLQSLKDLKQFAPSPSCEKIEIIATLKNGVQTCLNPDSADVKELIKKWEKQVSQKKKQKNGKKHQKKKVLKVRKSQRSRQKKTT
Experiment: Micro-array analysis of chemokine binding peptides: Mig
Details: limit = start of the upper 75% of that peptide's response range
measured parameter: binding to Mig with relatively high affinity (Relative Fluorescence Units)

Study these solved cases before continuing.
May I ask what binding to Mig with relatively high affinity (Relative Fluorescence Units) has been recorded for DYDYGAPC [Ph-p30] ?
> 15,000 RFU

Same question for DRYLNIVHAT [Ph-p18] please.
> 9,000 RFU

Could you now consider this next substance?
May I ask what binding to Mig with relatively high affinity (Relative Fluorescence Units) has been recorded for SYYDDVGL [Ph-p27] ?
> 15,000 RFU

---

Biological target: MCP-1 (Homo sapiens, UniProt P13500)
Construct: purchased 300-04
Sequence (P13500 24-99): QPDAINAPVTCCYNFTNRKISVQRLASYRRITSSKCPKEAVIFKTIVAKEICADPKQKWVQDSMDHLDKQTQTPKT
Assay: Micro-array analysis of chemokine binding peptides: MCP-1
Conditions: limit = start of the upper 75% of that peptide's response range
Description: (1) Printing: Chemokine (CK) solution (in water) was serially diluted with Print Reagent (GenTel BioSurfaces USA) to final concentrations of 50 μg and 25 μg/ml. BSA/BSA-Biotin control solutions (in water) were diluted with Print Reagent to 100 μg/ml. […] (11) Analysis: Quantitative analysis of micro-array was performed by the SpotReader program of Niles Scientific (USA) and presented as Relative Fluorescence (RF) as a function of CK concentration. […]
// reported binding to MCP-1 with relatively high affinity (Relative Fluorescence Units) for each item listed

May I ask what binding to MCP-1 with relatively high affinity (Relative Fluorescence Units) has been recorded for DYDYGAPC [Ph-p30] ?
> 15,000 RFU

Same question for TKCOKE (TKCQKE; listed as Homo sapiens) [Ph-p20] please.
> 15,000 RFU

Same question for WVFGAAMCK [Ph-p8.8] please.
> 15,000 RFU

Same question for WVFGAAACK [Ph-p8.6] please.
> 15,000 RFU

Same question for LFGNDCE [CBP5] please.
> 2,500 RFU

Continuing:
May I ask what binding to MCP-1 with relatively high affinity (Relative Fluorescence Units) has been recorded for WVFGHGMCK [Ph-p25] ?
> 15,000 RFU

---

Molecular target: Eotaxin 3 (Homo sapiens)
Construct: purchased 300-48
Sequence (Q9Y258 24-94): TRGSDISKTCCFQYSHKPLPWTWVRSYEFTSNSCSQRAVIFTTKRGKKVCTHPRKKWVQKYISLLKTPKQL
Assay: Micro-array analysis of chemokine binding peptides: Eotaxin 3
measured parameter: binding to Eotaxin 3, stated in words

Identify the measured binding to Eotaxin 3, stated in words of WVFGHGMCK [Ph-p25] for Eotaxin 3 (Homo sapiens).
bound

Same question for HYTCSSHFP [Ph-p17] please.
bound

Same question for SYYDDVGL [Ph-p27] please.
bound

Same question for WVFGAAACK [Ph-p8.6] please.
bound

Continuing:
Identify the measured binding to Eotaxin 3, stated in words of DRYLNIVHAT [Ph-p18] for Eotaxin 3 (Homo sapiens).
bound

Same question for TKCOKE (TKCQKE; listed as Homo sapiens) [Ph-p20] please.
bound

Same question for HHTCSLHFP [Ph-p16] please.
bound

Same question for WVFGNAACK [Ph-p8.7] please.
bound

Same question for WVFGAAMCK [Ph-p8.8] please.
bound

---

// reported binding to Eotaxin 3 with relatively high affinity (Relative Fluorescence Units) for each item listed
Molecular target: Eotaxin 3 (Homo sapiens, UniProt Q9Y258)
Construct: purchased 300-48
Sequence (Q9Y258 24-94): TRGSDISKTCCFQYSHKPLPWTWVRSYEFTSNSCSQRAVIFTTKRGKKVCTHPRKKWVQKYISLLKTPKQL
Test: Micro-array analysis of chemokine binding peptides: Eotaxin 3
Conditions: limit = start of the upper 75% of that peptide's response range

May I ask what binding to Eotaxin 3 with relatively high affinity (Relative Fluorescence Units) has been recorded for WVFGNAMCK [P8] ?
> 25,000 RFU

Continuing:
May I ask what binding to Eotaxin 3 with relatively high affinity (Relative Fluorescence Units) has been recorded for LFGNDCE [CBP5] ?
> 2,500 RFU

Same question for DYDYGAPC [Ph-p30] please.
> 15,000 RFU

Same question for WVFGVHFCK [Ph-p8.77] please.
> 15,000 RFU

Same question for GNAMCK (listed as Homo sapiens) [Ph-p8.1] please.
> 15,000 RFU

---

tested on: IL-8; test: Micro-array analysis of chemokine binding peptides: IL-8; details: limit = start of the upper 75% of that peptide's response range
Sequence (P10145 28-99 limits assumed): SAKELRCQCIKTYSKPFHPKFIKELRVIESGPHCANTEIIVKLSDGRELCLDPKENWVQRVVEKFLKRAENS
measured parameter: binding to IL-8 with relatively high affinity (Relative Fluorescence Units)

Study these solved cases before continuing.
May I ask what binding to IL-8 with relatively high affinity (Relative Fluorescence Units) has been recorded for DYDYGAPC [Ph-p30] ?
> 15,000 RFU

Same question for WVFGHGMCK [Ph-p25] please.
> 15,000 RFU

Same question for WVFGVHFCK [Ph-p8.77] please.
> 15,000 RFU

Same question for WVFGNAMCK [P8] please.
> 25,000 RFU

Could you now consider this next substance?
May I ask what binding to IL-8 with relatively high affinity (Relative Fluorescence Units) has been recorded for LFGNDCE [CBP5] ?
> 2,500 RFU
